target desc: Nrf2-Keap1 complex (Homo sapiens, UniProt Q14145)
Sequence (Q14145 whole entry, one chain of several): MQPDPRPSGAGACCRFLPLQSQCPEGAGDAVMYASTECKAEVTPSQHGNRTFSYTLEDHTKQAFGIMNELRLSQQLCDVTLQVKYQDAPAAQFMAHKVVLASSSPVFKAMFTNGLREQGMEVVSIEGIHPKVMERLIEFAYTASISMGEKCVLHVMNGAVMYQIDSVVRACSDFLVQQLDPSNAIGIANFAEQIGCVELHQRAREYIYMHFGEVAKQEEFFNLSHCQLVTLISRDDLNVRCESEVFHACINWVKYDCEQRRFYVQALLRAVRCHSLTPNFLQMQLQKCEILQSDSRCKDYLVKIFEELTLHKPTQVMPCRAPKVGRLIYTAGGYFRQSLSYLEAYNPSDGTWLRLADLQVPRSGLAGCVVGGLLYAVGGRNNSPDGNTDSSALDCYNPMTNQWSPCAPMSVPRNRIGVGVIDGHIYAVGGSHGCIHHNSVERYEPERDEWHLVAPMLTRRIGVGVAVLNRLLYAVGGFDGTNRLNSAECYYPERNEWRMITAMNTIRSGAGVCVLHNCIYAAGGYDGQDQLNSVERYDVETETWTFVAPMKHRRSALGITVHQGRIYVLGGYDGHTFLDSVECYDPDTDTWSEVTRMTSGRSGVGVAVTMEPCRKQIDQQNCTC
assay comment: cell-based
Type: cell-based
measurement parameters: Table 2; 200 nL compound; screen run at 16 and 32 μM, 3 hr

>  <molecule>
COc1cc(O)c2c(=O)cc(C)oc2c1CC=C(C)C

>  <target desc>
Nrf2-Keap1 complex (Homo sapiens, UniProt Q14145)

>  <200 nL (luminescence)>
1020

$$$$
>  <molecule>
CC(=O)O[C@H]1CC[C@]2(C)[C@H]3CC[C@@]4(C)[C@H](c5ccoc5)OC(=O)[C@H]5O[C@]54[C@]3(C)[C@H](OC(C)=O)C[C@H]2C1(C)C [3beta-ACETOXYDEOXODIHYDROGEDUNIN]

>  <target desc>
Nrf2-Keap1 complex (Homo sapiens, UniProt Q14145)

>  <200 nL (luminescence)>
972

$$$$
>  <molecule>
COc1c(O)cc2c(-c3ccccc3)cc(=O)oc2c1OC

>  <target desc>
Nrf2-Keap1 complex (Homo sapiens, UniProt Q14145)

>  <200 nL (luminescence)>
1104

$$$$
>  <molecule>
C=C(CC)C(=O)c1ccc(OCC(=O)O)c(Cl)c1Cl [reference compound]

>  <target desc>
Nrf2-Keap1 complex (Homo sapiens, UniProt Q14145)

>  <200 nL (luminescence)>
3604

$$$$
>  <molecule>
COC(=O)[C@H](O)[C@H]1C(C)(C)[C@H](OC(C)=O)[C@@H]2CC3=C4CC(=O)O[C@@H](c5ccoc5)[C@]4(C)CC[C@@H]3[C@@]1(C)C2=O [SWIETENOLIDE-3-ACETATE]

>  <target desc>
Nrf2-Keap1 complex (Homo sapiens, UniProt Q14145)

>  <200 nL (luminescence)>
2088

$$$$
>  <molecule>
O=C(C=C(O)c1ccccc1)c1ccccc1O [2′,beta-DIHYDROXYCHALCONE]

>  <target desc>
Nrf2-Keap1 complex (Homo sapiens, UniProt Q14145)

>  <200 nL (luminescence)>
44

$$$$
>  <molecule>
CC(=O)O[C@H]1C[C@@H](O)C(C)(C)[C@@H]2C[C@@H](OC(C)=O)[C@]3(C)[C@H](CC[C@@]4(C)[C@@H](c5ccoc5)OC(=O)[C@H]5O[C@@]534)[C@@]12C

>  <target desc>
Nrf2-Keap1 complex (Homo sapiens, UniProt Q14145)

>  <200 nL (luminescence)>
2102

$$$$

These measurements were taken from patent US9200046B2.
